TESTED_TARGET: hACSL5 (Homo sapiens (Human), UniProt Q9ULC5)
Sequence (Q9ULC5 whole entry): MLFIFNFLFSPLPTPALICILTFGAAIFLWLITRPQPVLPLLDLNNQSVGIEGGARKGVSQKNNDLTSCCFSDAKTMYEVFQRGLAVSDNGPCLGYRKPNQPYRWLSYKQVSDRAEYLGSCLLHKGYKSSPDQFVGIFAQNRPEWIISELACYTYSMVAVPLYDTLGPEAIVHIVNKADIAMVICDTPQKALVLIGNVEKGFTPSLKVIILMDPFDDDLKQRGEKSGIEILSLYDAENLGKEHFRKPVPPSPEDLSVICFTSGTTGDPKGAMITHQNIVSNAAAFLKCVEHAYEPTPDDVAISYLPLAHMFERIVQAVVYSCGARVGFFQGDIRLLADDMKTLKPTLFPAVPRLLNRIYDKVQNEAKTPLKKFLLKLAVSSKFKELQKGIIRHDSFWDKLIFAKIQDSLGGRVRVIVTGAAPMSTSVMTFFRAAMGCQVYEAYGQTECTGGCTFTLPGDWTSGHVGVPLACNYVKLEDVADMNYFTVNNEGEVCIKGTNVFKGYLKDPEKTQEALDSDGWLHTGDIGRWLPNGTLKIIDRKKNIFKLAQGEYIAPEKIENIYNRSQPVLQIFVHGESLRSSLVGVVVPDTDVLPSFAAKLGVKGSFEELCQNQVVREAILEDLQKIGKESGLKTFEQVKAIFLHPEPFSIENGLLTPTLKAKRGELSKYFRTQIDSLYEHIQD
PROTOCOL_SUMMARY: Cell-based assay (CBA) with B12FA in hACSL5-transfected Expi293F / FlpIn TRex293 cells
TEST_PARAMETERS: hACSL5-expressing cells
RECORDED_METRIC: IC50

- STRUCTURE_STRING: "CC[C@@H](Oc1ccc(C(=O)NS(=O)(=O)N2CCN(CC3CC3)CC2)c(F)c1F)c1ccc(OCC2CC2)cn1"
  RECORDED_METRIC: "IC50"
  REPORTED_RESULT: "0.1 to 0.5 µM"
- STRUCTURE_STRING: "CC[C@@H](Oc1ccc(C(=O)NS(=O)(=O)c2ccc(OCc3c[nH]cn3)cc2)c(F)c1F)c1ccc(OCCOC)cn1"
  RECORDED_METRIC: "IC50"
  REPORTED_RESULT: "> 0.5 µM"

Quick note, IC50 for CC[C@@H](Oc1ccc(C(=O)NS(=O)(=O)N2CCN(CC)CC2)cc1C(F)(F)F)c1ccc(Oc2ccccn2)cn1 landed at < 0.1 µM

The reported IC50 of the compound CC[C@@H](Oc1ccc(C(=O)NS(=O)(=O)C2CCN(C)CC2)c(F)c1F)c1ccc(Oc2ccccn2)cn1 was 0.1 to 0.5 µM

Value of measured IC50 for the entry CC[C@@H](Oc1ccc(C(=O)NS(=O)(=O)c2ccc(OC3CCN(CCOC)CC3)cc2)c(F)c1F)c1ccc(OCC2CC2)cn1 : < 0.1 µM

Value of IC50 reported for the compound CC[C@@H](Oc1ccc(C(=O)NS(=O)(=O)c2ccc(OCCN3CCOCC3)cc2)c(F)c1F)c1ccc(OCC2CC2)cn1 is > 0.5 µM

Entry CC[C@@H](Oc1ccc(C(=O)NS(=O)(=O)N2CCC(OCCN(C)C)CC2)c(F)c1F)c1ccc(Oc2ccccn2)cn1 , IC50 reported as 0.1 to 0.5 µM

Noted for CC[C@@H](Oc1ccc(C(=O)NS(=O)(=O)N2CCN(C3CCCC3)CC2)c(F)c1F)c1ccc(OCC2CC2)cn1 : its IC50 reads 0.1 to 0.5 µM

Entry under test: CC[C@@H](Oc1ccc(C(=O)NS(=O)(=O)c2ccc(OCCN3CCCC3)nc2)c(F)c1F)c1ccc(OCC2CC2)cn1 . Its IC50 was 0.1 to 0.5 µM

---

Recorded IC50, one value per entry.
TESTED_TARGET: UniProt:Q9ULC5
PROTOCOL_SUMMARY: Cell-based assay (CBA) with B12FA in hACSL5-transfected Expi293F / FlpIn TRex293 cells
TEST_PARAMETERS: hACSL5-expressing cells

Reference set (3 entries):
- STRUCTURE_STRING: "CC[C@@H](Oc1ccc(C(=O)NS(=O)(=O)N2CCN(C)CC2)c(F)c1F)c1cc(Oc2ccccn2)ccn1"
  IC50: "100 to 500 nM"
- STRUCTURE_STRING: "CC[C@@H](Oc1ccc(C(=O)NS(=O)(=O)N2CCN(C)CC2)c(F)c1F)c1ccc(OCC2CC2)cn1"
  IC50: "< 100 nM"
- STRUCTURE_STRING: "CC[C@@H](Oc1ccc(C(=O)NS(=O)(=O)N2CC3CC(C2)N3C)c(F)c1F)c1ccc(OCC2CC2)cn1"
  IC50: "< 100 nM"

Continue with the next compound.
Field IC50 (entry CC[C@@H](Oc1ccc(C(=O)NS(=O)(=O)c2ccc(OCCN3CCN(C)CC3)cc2)c(F)c1F)c1ccc(OCC2CC2)cn1 ) reads 100 to 500 nM
